Please provide measured growth for the entries that follow.
# Test system: A498 renal
# assay-protocol: NCI-60 one-dose screen, 48 h (100 = growth as untreated, 0 = no growth, -100 = all killed)
# measurement-parameters: 10 µM
# Description: Growth inhibition of the A498 human tumor cell line is measured as a screen for anti-cancer activity. Cells are grown in 96 well plates and exposed to the test compound for 48 hours. Compounds are tested at a single concentration, which is 10^-5 M for most compounds. The reported endpoint is percent growth (GI% or GIPRCNT), where numbers from 0 - 100% represent growth inhibition, and numbers from -100% - 0 represent cell death. For example, a value of 40 represents 60% growth inhibition. […]
This is part of a sample that, as a whole, favours compounds with a hit. Of some 83,000 tested, about 20% had one in any assay. The source made the active and inactive calls. The calls were made as follows: active = growth percent below 10; inactive = the rest.

Asked: Return reported growth; argument: COc1ccccc1NC(=O)c1cc2cc(Br)ccc2cc1O
Given back: 18.2% (inactive)

Asked: Likewise for O=C(/C(=N/O)c1ccccc1)c1ccccc1 ?
Given back: 91.5% (inactive)

Asked: Likewise for O=C(Cc1nc2ccc([N+](=O)[O-])cc2nc1CC(=O)c1ccccc1)c1ccccc1 ?
Given back: 132% (inactive)

Asked: Likewise for O=C(O)/C=C/c1ccc2c(c1)CCC2 ?
Given back: 111% (inactive)

Asked: Likewise for CCOc1ccc(I)cc1 ?
Given back: 101% (inactive)

Asked: Likewise for O=C(NN=C1CCCCC1)C(=O)NN=C1CCCCC1 ?
Given back: 119% (inactive)

Asked: Likewise for O=C(O)CCC(=O)OC(C1CO1)C(OC(=O)CCC(=O)O)C1CO1 (stereo not drawn) ?
Given back: 80.5% (inactive)

Asked: Likewise for S=c1sc2ccccc2n1CN1CCCCC1 ?
Given back: 96.5% (inactive)

Asked: Likewise for Cc1ccc(C(O)C2CC2)cc1 (stereo not drawn) ?
Given back: 87.5% (inactive)

Asked: Likewise for C#CCSc1nnnn1-c1ccc(Br)c(C)c1 ?
Given back: 124% (inactive)

Asked: Likewise for CCOc1ccc2[nH]c(=S)sc2c1 ?
Given back: 94% (inactive)

Asked: Likewise for O=C(O)c1cccc([N+](=O)[O-])c1O ?
Given back: 109% (inactive)

Asked: Likewise for CC1(O)OC(COc2ccc(Cl)cc2)COC1O (stereo not drawn) ?
Given back: 100% (inactive)
